meta.source: the supplement of paper PMC3545927

The following sequences are shown together with reported furin cleavage Z-score values.
- system_under_test: furin, P09958;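 also: purified furin at 1:10 enzyme:substrate in 50 mM HEPES pH 7.5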
- Sequence (P09958 whole entry): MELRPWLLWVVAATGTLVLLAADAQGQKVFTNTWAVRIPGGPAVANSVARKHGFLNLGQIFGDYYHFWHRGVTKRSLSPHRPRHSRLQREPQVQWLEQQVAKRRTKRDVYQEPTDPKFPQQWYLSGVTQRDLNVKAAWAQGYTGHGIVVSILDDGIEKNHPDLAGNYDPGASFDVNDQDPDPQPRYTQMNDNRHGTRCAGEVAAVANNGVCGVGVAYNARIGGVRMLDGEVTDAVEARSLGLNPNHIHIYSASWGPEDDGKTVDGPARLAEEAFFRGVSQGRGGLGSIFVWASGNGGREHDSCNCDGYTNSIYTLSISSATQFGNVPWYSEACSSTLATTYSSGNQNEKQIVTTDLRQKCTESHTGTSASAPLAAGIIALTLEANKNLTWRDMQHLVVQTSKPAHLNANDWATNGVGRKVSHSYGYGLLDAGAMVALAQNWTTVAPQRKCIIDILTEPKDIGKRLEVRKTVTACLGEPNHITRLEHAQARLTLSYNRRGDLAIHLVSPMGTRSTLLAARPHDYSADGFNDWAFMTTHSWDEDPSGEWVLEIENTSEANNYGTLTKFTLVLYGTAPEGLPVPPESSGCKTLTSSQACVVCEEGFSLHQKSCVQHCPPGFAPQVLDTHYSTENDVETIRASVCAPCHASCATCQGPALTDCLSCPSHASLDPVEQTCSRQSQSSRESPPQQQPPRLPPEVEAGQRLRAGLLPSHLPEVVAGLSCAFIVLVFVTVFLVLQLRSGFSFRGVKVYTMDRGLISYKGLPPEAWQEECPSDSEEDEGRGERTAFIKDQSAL
- assay_details: furin cleavage Z-score vs untreated control; higher = more cleavage, active = 3.5 or more, inactive = 1 or less, 8 variable residues between constant flanks
- condition_context: 30 min
Some of the results follow. How many sequences the whole screen found active is unknown.
I only need the number, thanks.

Query: In one line, give reported furin cleavage Z-score of the entry CARIMRDSGLAGNASASA [FS-2150] .
Reply: 0.804
